Experiment: Intrinsic dissolution rate (IDR)
Assay type: physicochemical
Details: pH 6.8, 50 mM sodium citrate buffer, 37° C.
metric: IDR (mg/min/cm^2)
Express your answer in mg/min/cm^2, writing the number without its unit.

Documented IDR of `C[N+](C)(C)CCO` : 14.50

Documented IDR of `CCN(CC)CCOC(=O)c1ccc(N)cc1` : 1.06

Documented IDR of `CN(C)C(=N)N=C(N)N` : 7.09

Documented IDR of CC(C)(Oc1ccc(C(=O)c2ccc(Cl)cc2)cc1)C(=O)O [Free acid, reference compound] : 0.30

Documented IDR of `NCCO` : 8.05
